biological target: VR1/TRPV1 receptor (Homo sapiens, UniProt Q8NER1); assay: IC50 (human) after pH stimulus; type: cell-based; settings: table 4
Sequence (Q8NER1 whole entry): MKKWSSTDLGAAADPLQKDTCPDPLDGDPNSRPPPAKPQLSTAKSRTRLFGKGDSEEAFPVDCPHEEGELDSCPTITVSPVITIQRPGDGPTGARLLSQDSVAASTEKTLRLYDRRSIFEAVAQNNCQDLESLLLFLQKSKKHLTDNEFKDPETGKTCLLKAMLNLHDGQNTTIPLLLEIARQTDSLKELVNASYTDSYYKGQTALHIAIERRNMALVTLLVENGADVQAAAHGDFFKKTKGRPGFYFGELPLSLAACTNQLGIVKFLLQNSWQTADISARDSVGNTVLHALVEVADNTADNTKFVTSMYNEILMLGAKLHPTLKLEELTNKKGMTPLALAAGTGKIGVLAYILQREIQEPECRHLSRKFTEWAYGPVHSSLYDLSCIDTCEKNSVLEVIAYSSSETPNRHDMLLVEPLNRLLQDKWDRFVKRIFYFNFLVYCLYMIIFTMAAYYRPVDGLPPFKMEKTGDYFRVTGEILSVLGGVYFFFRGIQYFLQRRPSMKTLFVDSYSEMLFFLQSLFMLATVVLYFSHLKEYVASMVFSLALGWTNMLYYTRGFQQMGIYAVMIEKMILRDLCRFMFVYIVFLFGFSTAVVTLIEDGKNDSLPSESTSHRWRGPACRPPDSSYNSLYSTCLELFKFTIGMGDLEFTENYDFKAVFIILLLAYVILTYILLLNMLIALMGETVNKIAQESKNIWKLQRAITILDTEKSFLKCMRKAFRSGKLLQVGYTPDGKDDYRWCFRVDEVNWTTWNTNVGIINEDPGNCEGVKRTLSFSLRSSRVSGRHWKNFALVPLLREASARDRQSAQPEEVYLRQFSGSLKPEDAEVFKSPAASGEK
pIC50: −log10 of the molar value.
Each entry gets false if its pIC50 stays under 7, and true if its pIC50 is 7 or above.

1. COCCCOc1nc(C(C)(C)C)ccc1CNC(=O)C(C)c1ccc(NS(C)(=O)=O)c(F)c1 (centres unmarked)    false
2. CCCCCCOc1nc(C(F)(F)F)ccc1CNC(=O)C(C)c1ccc(NS(C)(=O)=O)c(F)c1 (centres unmarked) [Example 376]    true
3. Cc1ccc(COc2nc(C(F)(F)F)ccc2CNC(=O)C(C)c2ccc(NS(C)(=O)=O)c(F)c2)cc1 (centres unmarked)    true
4. CCCN(CCC)c1nc(C(C)(C)C)ccc1CNC(=O)C(C)c1ccc(NS(C)(=O)=O)c(F)c1 (centres unmarked)    false
5. CC(C(=O)NCc1ccc(C(F)(F)F)nc1OCC1CCCCC1)c1ccc(NS(C)(=O)=O)c(F)c1 (centres unmarked)    true

* * *

molecular target: VR1/TRPV1 receptor (Homo sapiens); assay: IC50 (human) after pH stimulus; type: cell-based; conditions: table 4
Value Kind: IC50 (nM)

1. CC(=O)OC1CCN(c2nc(C(F)(F)F)ccc2CNC(=O)C(C)c2ccc(NS(C)(=O)=O)c(F)c2)CC1 (centres unmarked)    139
2. CC(C)CCOc1nc(C(F)(F)F)ccc1CNC(=O)C(C)c1ccc(NS(C)(=O)=O)c(F)c1 (centres unmarked)    15.1
3. CC(C(=O)NCc1ccc(C(F)(F)Cl)nc1N1CCN(c2ccccc2)CC1)c1ccc(NS(C)(=O)=O)c(F)c1 (centres unmarked)    38.6
4. CC(C)COc1cc(C(F)(F)F)ccc1CNC(=O)C(C)c1ccc(NS(C)(=O)=O)c(F)c1 (centres unmarked)    41
5. COc1ccc(-c2nc(C(F)(F)F)ccc2CNC(=O)C(C)c2ccc(NS(C)(=O)=O)c(F)c2)cc1 (centres unmarked)    92.3
6. CC(C(=O)NCc1ccc(C(F)(F)F)nc1N1CC=C(c2ccccc2)CC1)c1ccc(NS(C)(=O)=O)c(F)c1 (centres unmarked)    43
7. CCC/C=C/c1nc(C(F)(F)F)ccc1CNC(=O)C(C)c1ccc(NS(C)(=O)=O)c(F)c1 (centres unmarked)    102
8. CC(C(=O)NCc1ccc(C(F)(F)F)cc1N1CCC(C(F)(F)F)CC1)c1ccc(NS(C)(=O)=O)c(F)c1 (centres unmarked)    20.1

* * *

target: VR1/TRPV1 receptor (Homo sapiens, UniProt Q8NER1); test: IC50 (human) after pH stimulus; format: cell-based; conditions: @ 1 μM; ne = no effect; read-out: inhibition in percent, IC50 (human) after pH stimulus
Each entry gets NO if its inhibition at 1 µM stays under 50%, and YES if its inhibition at 1 µM is 50% or above.

1. CCCCCCOc1nc(C(C)(C)C)ccc1CNC(=O)C(C)c1ccc(NS(C)(=O)=O)c(F)c1 (centres unmarked)    YES
2. Cc1ccc(Oc2nc(C(F)(F)F)ccc2CNC(=O)C(C)c2ccc(NS(C)(=O)=O)c(F)c2)cc1 (centres unmarked)    NO
3. CCCCOc1nc(C(F)(F)F)ccc1CNC(=O)C(C)c1ccc(NS(C)(=O)=O)c(C)c1 (centres unmarked)    YES
4. CC(C)OC1CCN(c2nc(C(F)(F)F)ccc2CNC(=O)C(C)c2ccc(NS(C)(=O)=O)c(F)c2)CC1 (centres unmarked)    YES
5. CC(C(=O)NCc1ccc(C(F)(F)F)cc1N1CCN(C2CCCCC2)CC1)c1ccc(NS(C)(=O)=O)c(F)c1 (centres unmarked)    NO

* * *

Ki reference
biological target: vanilloid receptor 1 (VR1/TRPV1) of the rat species (Rattus norvegicus, UniProt O35433); construct: The spinal column is removed from decapitated rats; from tissue; host or cells: primary cells dissociated from rat dorsal root ganglia; test: FLIPR Ca2+ influx assay on rat dorsal root ganglia cells (pharmacological method I); format: cell-based; conditions: Ki (rat) Cap., table 4; capsaicin
Sequence (O35433 whole entry): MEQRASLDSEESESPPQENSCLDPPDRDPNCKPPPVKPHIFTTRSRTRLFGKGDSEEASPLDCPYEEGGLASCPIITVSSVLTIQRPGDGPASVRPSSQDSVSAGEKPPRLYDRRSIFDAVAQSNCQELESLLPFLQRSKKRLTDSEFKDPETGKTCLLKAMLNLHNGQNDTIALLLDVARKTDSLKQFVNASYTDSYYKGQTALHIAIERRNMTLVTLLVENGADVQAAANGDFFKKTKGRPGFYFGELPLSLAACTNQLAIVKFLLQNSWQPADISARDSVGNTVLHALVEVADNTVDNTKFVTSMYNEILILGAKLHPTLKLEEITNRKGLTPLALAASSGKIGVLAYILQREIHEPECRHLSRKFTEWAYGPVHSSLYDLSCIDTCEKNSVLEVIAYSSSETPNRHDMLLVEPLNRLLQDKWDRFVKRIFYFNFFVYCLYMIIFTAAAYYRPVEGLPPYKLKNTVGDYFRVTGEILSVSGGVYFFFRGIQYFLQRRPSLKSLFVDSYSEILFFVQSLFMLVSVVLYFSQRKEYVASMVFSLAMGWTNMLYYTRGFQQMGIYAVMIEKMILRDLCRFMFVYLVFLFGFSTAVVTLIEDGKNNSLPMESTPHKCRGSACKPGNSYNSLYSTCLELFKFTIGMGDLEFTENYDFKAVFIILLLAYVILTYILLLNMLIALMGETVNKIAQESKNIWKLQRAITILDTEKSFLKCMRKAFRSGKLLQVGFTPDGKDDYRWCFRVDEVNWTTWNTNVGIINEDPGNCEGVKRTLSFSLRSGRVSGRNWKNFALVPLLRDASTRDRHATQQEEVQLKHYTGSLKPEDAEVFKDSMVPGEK
Value Kind: Ki (nM)

1. CC1CCC(Oc2nc(C(F)(F)F)ccc2CNC(=O)C(C)c2ccc(NS(C)(=O)=O)c(F)c2)CC1 (stereo not drawn)    1.3
2. CC(C(=O)NCc1ccc(C(F)(F)F)nc1OCC1CCCCC1)c1ccc(NS(C)(=O)=O)c(F)c1 (stereo not drawn)    0.5
3. CCOC(=O)C1(c2ccccc2)CCN(c2nc(C(F)(F)F)ccc2CNC(=O)C(C)c2ccc(NS(C)(=O)=O)c(F)c2)CC1 (stereo not drawn)    3
4. CC(C(=O)NCc1ccc(C(F)(F)F)nc1OCC1CC1)c1ccc(NS(C)(=O)=O)c(F)c1 (stereo not drawn)    1.2
5. CC(C(=O)NCc1ccc(C(F)(F)F)nc1OC1CCC1)c1ccc(NS(C)(=O)=O)c(F)c1 (stereo not drawn)    1.7
6. CC(C(=O)NCc1ccc(C(F)(F)F)nc1OCC1CC1(C)C)c1ccc(NS(C)(=O)=O)c(F)c1 (stereo not drawn)    1.7

* * *

target: vanilloid receptor (VR1) (Homo sapiens); construct: expressed in transfected cells; host or cells: CHO K1 cells (ECACC), stably transfected; experiment: FLIPR Ca2+ influx assay on CHO K1 cells transfected with the VR1 gene (pharmacological method II); assay type: cell-based; details: table 4; capsaicin; read-out: Ki (human) Cap.
Sequence (Q8NER1 whole entry): as the sequence (Q8NER1 whole entry) above
pKi: −log10 of the molar value.
Each entry gets 0 if its pKi stays under 9, and 1 if its pKi is 9 or above.

1. CCOC(=O)c1cc(CNC(=O)C(C)c2ccc(NS(C)(=O)=O)c(F)c2)c(N2CCC(C)CC2)cc1C(F)(F)F (stereo not drawn)    0
2. CC(C(=O)NCc1ccc(C(F)(F)F)nc1-c1ccc(N(C)C)cc1)c1ccc(NS(C)(=O)=O)c(F)c1 (stereo not drawn)    0
3. CC(C(=O)NCc1ccc(C(F)(F)F)nc1-c1ccc(F)c(Cl)c1)c1ccc(NS(C)(=O)=O)c(F)c1 (stereo not drawn)    1
4. CC1CCC(Oc2nc(C(F)(F)F)ccc2CNC(=O)C(C)c2ccc(NS(C)(=O)=O)c(F)c2)CC1 (stereo not drawn)    0

* * *

target: vanilloid receptor (VR1) (Homo sapiens); construct: expressed in transfected cells; host or cells: CHO K1 cells (ECACC), stably transfected; assay: FLIPR Ca2+ influx assay on CHO K1 cells transfected with the VR1 gene (pharmacological method II); format: cell-based; settings: table 4; capsaicin; read-out: Ki (human) Cap.
Ki reference
Value Kind: Ki (nM)

1. CC(C(=O)NCc1ccc(C(F)(F)F)nc1OCC1CC1)c1ccc(NS(C)(=O)=O)c(F)c1 (stereo not drawn) [Example 100]    1.1
2. CCCCCCc1nc(C(F)(F)F)ccc1CNC(=O)C(C)c1ccc(NS(C)(=O)=O)c(F)c1 (stereo not drawn) [Example 267]    1.6
3. CCCCSc1nc(C(F)(F)F)ccc1CNC(=O)C(C)c1ccc(NS(C)(=O)=O)c(F)c1 (stereo not drawn) [Example 122]    0.7

* * *

molecular target: VR1/TRPV1 receptor (Homo sapiens, UniProt Q8NER1); assay: IC50 (human) after pH stimulus; format: cell-based; conditions: table 4
Value Kind: log10(IC50) (log10 of the value in nM)

1) CCOc1nc(C(F)(F)F)ccc1CNC(=O)C(C)c1ccc(NS(C)(=O)=O)c(F)c1 (stereo not drawn) [Example 163]    2.44
2) COC1CCN(c2nc(C(F)(F)F)ccc2CNC(=O)C(C)c2ccc(NS(C)(=O)=O)c(F)c2)CC1 (stereo not drawn) [Example 159]    2.45
3) CC(C(=O)NCc1ccc(C(F)(F)F)nc1N1C[C@@H](C)O[C@@H](C)C1)c1ccc(NS(C)(=O)=O)c(F)c1 (stereo partly drawn) [Example 311]    3.04
4) CC(C(=O)NCc1ccc(C(F)(F)Cl)nc1N1CCCCCC1)c1ccc(NS(C)(=O)=O)c(F)c1 (stereo not drawn) [Example 132]    1.17
5) CC(C(=O)NCc1ccc(C(F)(F)F)nc1C#Cc1ccccc1)c1ccc(NS(C)(=O)=O)c(F)c1 (stereo not drawn) [Example 354]    1.93
6) CCCCCCOc1nc(C(F)(F)F)ccc1CNC(=O)C(C)c1ccc(NS(C)(=O)=O)c(F)c1 (stereo not drawn) [Example 91]    1.48
7) CC(C)CCOc1nc(C(C)(C)C)ccc1CNC(=O)C(C)c1ccc(NS(C)(=O)=O)c(F)c1 (stereo not drawn) [Example 329]    2.25
8) Cc1ccc(N2CCN(c3cc(C(F)(F)F)ccc3CNC(=O)C(C)c3ccc(NS(C)(=O)=O)c(F)c3)CC2)cc1 (stereo not drawn) [Example 246]    1.94
9) COc1ccc(N2CCN(c3nc(C(F)(F)F)ccc3CNC(=O)C(C)c3ccc(NS(C)(=O)=O)c(F)c3)CC2)cc1 (stereo not drawn) [Example 221]    1.65
10) CC(C(=S)NCc1ccc(C(F)(F)F)nc1N1CCCC1)c1ccc(NS(C)(=O)=O)c(F)c1 (stereo not drawn) [Example 129]    1.89
11) CC1CCN(c2nc(C(F)F)ccc2CNC(=O)C(C)c2ccc(NS(C)(=O)=O)c(F)c2)CC1 (stereo not drawn) [Example 315]    2.47
12) CC1CCN(c2nc(C(F)(F)F)ccc2CNC(=O)C(C)c2ccc(NS(C)(=O)=O)c(F)c2)CC1 (stereo not drawn) [Example 80]    0.73
13) CC(C(=O)NCc1ccc(C(F)(F)F)cc1N1CCC(C)(C)CC1)c1ccc(NS(C)(=O)=O)c(F)c1 (stereo not drawn) [Example 218]    1.14
14) CC(C(=O)NCc1ccc(C(F)(F)F)nc1OC1CCC(C(C)(C)C)CC1)c1ccc(NS(C)(=O)=O)c(F)c1 (stereo not drawn) [Example 170]    2.38
15) CC(C(=O)NCc1ccc(C(F)(F)F)nc1NCC1CCN(C(=O)OC(C)(C)C)CC1)c1ccc(NS(C)(=O)=O)c(F)c1 (stereo not drawn) [Example 342]    3.06
16) CCCN(CCC)c1nc(C(F)(F)F)ccc1CNC(=O)C(C)c1ccc(NS(C)(=O)=O)c(F)c1 (stereo not drawn) [Example 16]    1.17
17) CC(C(=O)NCc1ccc(C(F)(F)F)nc1N1CCN(c2ccccc2)CC1)c1ccc(NS(C)(=O)=O)c(F)c1 (stereo not drawn) [Example 109]    1.49
18) CC(C(=O)NCc1ccc(C(F)(F)F)nc1OCc1ccc(C(F)(F)F)cc1)c1ccc(NS(C)(=O)=O)c(F)c1 (stereo not drawn) [Example 206]    1.82

Source: patent US8710233B2
